Collected hCD71 values appear next to each entry.
biological target: T1, recombinant biotinylated CD71 extracellular domain (Sino Biologics) with an N-terminal 6His tag (human, UniProt P02786 89-760, biotinylated (sites not given)); assay: screening ELISA
T1 construct: extracellular domain; also called hCD71; huCD71
T1 sequence (P02786 other isoform, or with tags, fused parts or gaps): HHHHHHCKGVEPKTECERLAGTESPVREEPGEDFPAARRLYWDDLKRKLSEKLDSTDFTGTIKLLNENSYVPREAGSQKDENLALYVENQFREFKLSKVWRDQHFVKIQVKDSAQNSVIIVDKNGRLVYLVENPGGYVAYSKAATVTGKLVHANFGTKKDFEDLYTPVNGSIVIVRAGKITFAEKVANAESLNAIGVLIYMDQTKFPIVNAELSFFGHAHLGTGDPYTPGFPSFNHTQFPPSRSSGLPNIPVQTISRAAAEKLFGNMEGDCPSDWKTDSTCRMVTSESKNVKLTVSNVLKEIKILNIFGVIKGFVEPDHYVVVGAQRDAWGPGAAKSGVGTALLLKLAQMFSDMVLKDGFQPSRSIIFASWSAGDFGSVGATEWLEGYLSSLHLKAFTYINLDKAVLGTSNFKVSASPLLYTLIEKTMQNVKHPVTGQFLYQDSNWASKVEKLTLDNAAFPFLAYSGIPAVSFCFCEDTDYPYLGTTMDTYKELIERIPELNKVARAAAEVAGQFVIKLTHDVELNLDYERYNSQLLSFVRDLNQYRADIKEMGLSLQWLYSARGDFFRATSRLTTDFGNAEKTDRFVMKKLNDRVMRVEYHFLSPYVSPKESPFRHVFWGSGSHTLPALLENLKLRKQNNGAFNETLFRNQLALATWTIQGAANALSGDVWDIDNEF

binder | hCD71
SEQ ID NO 99 (designed binder, FN3 domain) MLPAPKNLVVSRVTEDSARLSWTAPDAAFDSFGIQYNEFVFRGEAIVLTVPGSERSYDLTGLKPGTEYFVPISGVKGGDDSRPLSAIFTT | 853000
SEQ ID NO 190 (designed binder, FN3 domain) MLPAPKNLVVSRVTEDSARLSWTAPDAAFDSFFIGYPEYPATGEAITLFVPGSERSYDLTGLKPGTEYNVVIQGVKGGRPSNPLVVAFTT | 3.21e+06
SEQ ID NO 228 (designed binder, FN3 domain) MLPAPKNLVVSRVTEDSARLSWTAPDAAFDSFEIYYVEWSEAGEAIVLTVPGSERSYDLTGLKPGTEYRVEIRGVKGGSWSSPLSAIFTT | 2.54e+06
SEQ ID NO 267 (designed binder, FN3 domain) MLPAPKNLVVSRVTEDSARLSWTAPDAAFDSFPIVYSEIHVIGEAIVLTVPGSERSYDLTGLKPGTEYDVWIEGVKGGHLSEPLSAIFTT | 1.97e+06
SEQ ID NO 296 (designed binder, FN3 domain) MLPAPKNLVVSRVTEDSARLSWTAPDAAFDSFFIGYLEPQPPGEAIILTVPGSERSYDLTGLKPGTEYNVTIQGVKGGFPSMPLSAIFTT | 2.7e+06
